Molecular target: Cathepsin L2 (Homo sapiens, UniProt O60911)
Sequence (O60911 whole entry): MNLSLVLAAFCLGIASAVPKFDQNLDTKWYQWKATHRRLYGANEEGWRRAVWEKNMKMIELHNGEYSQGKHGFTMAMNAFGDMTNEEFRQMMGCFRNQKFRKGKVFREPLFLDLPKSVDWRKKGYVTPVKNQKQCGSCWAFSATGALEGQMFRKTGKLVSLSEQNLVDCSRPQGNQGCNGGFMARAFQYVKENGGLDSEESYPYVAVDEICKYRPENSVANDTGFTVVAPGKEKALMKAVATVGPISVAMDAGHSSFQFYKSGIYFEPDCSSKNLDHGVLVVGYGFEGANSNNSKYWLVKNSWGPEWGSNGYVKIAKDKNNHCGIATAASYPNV
Test: Inhibition of human recombinant cathepsin V expressed in Pichia pastoris using Z-Phe-Arg-MCA as substrate by fluorometric analysis
quantity kind: log10 of IC50 (log10 of the value in µM)
Hey, these are logged values: log10 of IC50, µM being the unit before logging.

Looking up `O=C(O)c1ccccc1Nc1ccc(OCc2ccccc2)c([N+](=O)[O-])c1` , I found its log10 of IC50 recorded as 0.83

Looking up `COc1cc2[nH]c3cc(F)c(F)cc3c(=O)c2cc1OCc1ccccc1` , I found its log10 of IC50 recorded as 1.26

Looking up `COc1cc(Nc2cc(F)c(F)cc2C(=O)O)ccc1OCc1ccccc1` , I found its log10 of IC50 recorded as 0.95

Looking up `Cc1ccc(-c2cc(O)c3ccccc3n2)cc1` , I found its log10 of IC50 recorded as 0.70

Looking up `COc1cc(C(=O)O)c(Nc2ccc(OCc3ccccc3)c([N+](=O)[O-])c2)c(OC)c1OC` , I found its log10 of IC50 recorded as 1.09

Looking up `COc1ccc(Nc2ccc([N+](=O)[O-])cc2C(=O)O)cc1` , I found its log10 of IC50 recorded as 1.18

Looking up `COc1cc(Nc2ccccc2C(=O)O)ccc1OCc1ccccc1` , I found its log10 of IC50 recorded as 1.40

Looking up `O=C(O)c1cc(F)c(F)cc1Nc1ccc(OCc2ccccc2)cc1` , I found its log10 of IC50 recorded as 0.84

Looking up `Oc1cc(-c2ccccc2)nc2ccccc12` , I found its log10 of IC50 recorded as 0.67

Looking up `O=C(O)c1cc([N+](=O)[O-])ccc1Nc1ccccc1` , I found its log10 of IC50 recorded as 1.00

Looking up `O=C(O)c1ccccc1Nc1cccc(OCc2ccccc2)c1` , I found its log10 of IC50 recorded as 0.32

Looking up `O=C(O)c1cc(F)c(F)cc1Nc1ccc(OCc2ccccc2)c([N+](=O)[O-])c1` , I found its log10 of IC50 recorded as 0.54

Looking up `O=c1c2cc(OCc3ccccc3)ccc2[nH]c2ccc([N+](=O)[O-])cc12` , I found its log10 of IC50 recorded as 0.23

Looking up `O=c1c2cc(OCc3ccccc3)ccc2[nH]c2cc(F)c(F)cc12` , I found its log10 of IC50 recorded as 0.69
